Molecular target: T1, Ebola virus GP with a C-terminal polyhistidine tag (Sino Biologicals, Catalog #40442-V08B1) (Ebola virus, UniProt P87666 33-650)
T1 construct: also called EbolaGP.his; Ebola virus GP.his
Assay: SPR 37C, mAb captured

binder	bound operator	t½, min
H1H17223P (antibody, V domains shown) VH: EVQLVESGGGLVQPGGSLRLSCAASGFTFRTYDMHWVRQATGKGLEWVSAIGTAGDTYYPGSVKGRFTISRENAKNSLYLQMNSLRAGDTAVYYCARTIFGVVLTFDYWGQGTLVTVSS VL: DIQMTQSPSSLSASVGDRVTITCRASQSISSSLNWYQQKPGKAPKLLIYAASSLHSGVPSRFSGSGSGTDFTLTISSLQPEDFATYYCQQTYSIPPTTFGQGTKVEIK	=	47.7
H1H17162P (antibody, V domains shown) VH: EVQLVESGGGLVQPGGSLRLSCAASEFTFSSYAMSWVRQAPGKGLEWVSAISGSSGSTYYADSVKGRFTISRDNSKKTLYLQMNSLRVEDTAVYYCAKGGYPHSFDIWGHGTMVTVSS VL: DIQMTQSPSSLSASVGDRVTITCRASQSISSFLNWYQQKPGKAPKLLIYAASSLQSGVPSRFSGSGSGTDFTLTISSLQPEDFATYYCQQSYSSITFGQGTRLEIK	≥	1160
H1H17151P (antibody, V domains shown) VH: EVQLVESGGGLVQPGGSLRLSCAASGFTFSSYAMNWVRQAPGKGLEWVSVISGSGGWRNYADSVKGRITISRDNSKNTLYLQMNNLRAEDTAVYYCAKDRGATFGVVILGPPYYGMDVWGQGTTVTVSS VL: DIQMTQSPSSLSASVRDRVTITCRASQSISTYLNWYQQKPGKAPKLLIYAASSLQSGVPSRFSGSGSGTGFTLTISSLQPEDFATYYCQQSYSIPYTFGQGTKLEIK	=	30.2
H1M17354N (antibody, V domains shown, also called HCAF05C08-22) VH: QVQLVQSGAEVKKPGASVKVSCKASGYTFTSYYMHWVRQAPGQGLEWLGIINPSGGSTSYAQKFQGRVTMTRDTSTSTVYMELSSLRSEDTAVYYCARETGEAGEVFNYWGQGTQVTVSS VL: DIQMTQSPSSLSASVGDRVTITCRASQIISRYLNWYQHKPGKAPKVLIYAASTLQSGVPSRFSGSGSGTDFTLTISSLQPEDFATYYCQQSYSTPPITFGQGTRLEIK	=	2
H1M17357N (antibody, V domains shown, also called HCAF09D11-13) VH: QVQLVQSGAEVKKPGASVKVSCKASGYTFTSYYMHWVRQAPGQGLEWMGIINPSGGSTSYAQKFQGRVTMTRDTSTSTVYMELSSLRSEDTAVYYCAREIGEAGEVFNYWGQGTLVTVSS VL: DIQMTQSPSSLSASVGDRVTITCRASQSISRYLNWYQHKPGKAPKVLIYAASILQSGVPSRFSGSGSGTDFTLTISSLQPEDFATYYCQQSYSTPPITFGQGTRLEIK	=	6.3
H1H17199P (antibody, V domains shown) VH: EVQLVESGGGLVQPGGSLRLSCAASGFTFSDHYMVWVRQAPGKGLEWVGRTRNKANSYSTEYAASVKGRFTISRDDSKKSLYLQMNSLKTEDTAVYYCARGGETLWFGESNYGMDVWGQGTTVTVSS VL: EIVLTQSPDTLSLSPGERATLSCRASQSVSSTYLAWYQQKPGQAPSLLIYGASSRATGIPDRFSGSGSGTDFTLTISRLEPEDFAVYYCQQYGRSPLTFGGGTKVEIK	=	9
H1H17196P (antibody, V domains shown) VH: EVQLVESGGGLVQPGGSLRLSCAASGFTFRSYDMHWVRQGSGKGLEWVSAIGTAGDTYYLGSVKGRFTISRENAKNSLYLQMNSLRAGDTAVYYCARAWFGDVFLDYWGQGTLVTVSS VL: EIVMTQSPATLSVSPGERATLSCRASQSVSSNLAWYQQKPGQAPRLLIYGASTRATGIPARFSGSGSGTEFTLTISSLQSEDFAGYYCQQYNNRLTFGGGTKVEIK	≥	1160
H1H17142P (antibody, V domains shown) VH: EVQLVESGGGLVQPGGSLRLSCAASGFTFSSYAMTWVRQAPGKGLEWVSSISGSGTSTYYADSVKGRFTISRDNSKNTLYLQMNSLRAEDTALYYCSRDIYTWNFLSLIGGMDVWGQGTTVTVSS VL: DIQMTQSPSSLSASVGDRVTITCRASQGIRIDLGWYQQKPGKAPNRLIYAASSLQGGVPSRFSGSGSGTEFTLTISSLQPEDFATYYCLQQNSYPWTFGQGTKVEIK	=	66.6
H1H17214P (antibody, V domains shown) VH: EVQLVESGGGLVQPGGSLRLSCAASKFTFDTFAMSWVRQAPGKGLEWVSFISSSGGRTDYVDSVKGRFTISRDNSKNTLYLQMNSLRAEDTAVYYCAKERTIFGVLILGPDNYGMDVWGQGTTVTVSS VL: DIQMTQSPSSLSAFVGDRVTITCRASQSISTYLNWYQQKPGKAPKLLIYAASSLQSGVSSRFSGSGSGTDFTLTISSLQPEDFATYYCQQSYSAPPITFGQGTRLEIK	=	74.9
H1H17203P (antibody, V domains shown) VH: QVQLVESGGGVVQPGRSLRLSCAASGFTFNNYGMHWVRQAPGMGLEWVAVIWHDGSDKYYADSVKGRFTISRDNSKNTLYLQMNSLRAEDTAVYYCARNWNLFDYWGQGTLVTVSS VL: DIQMTQSPSSLSASVGDRITITCRASQSISTYLHWYQQKPGKAPKLLIYAASTLQSGVPSRFSGSGSGTDFTLTISSLQPEDFATYYCQQSFSTPPINFGQGTKLEIK	=	9.7
H1H17193P (antibody, V domains shown) VH: QVQLVESGGGVVQPGRSLRLSCAASGFTFSSYGIHWVRQAPGKWLEWVAFIWFDGSNKYYADSVKGRFTISRDDSKNTLYLQMNSLRAEDTAVYYCARDGEIFGVLISSDAFDIWGQGTMVTVSS VL: DIQMTQSPSSLSASVGDRVTITCRASRGIRNDLGWFQQKPGKAPKRLIYVASNLQSGVPSRFSGSGSGTEFTLTISSLQPEDFATYYCLQHNSYPITFGQGTRLEIK	=	22.9

The values you see were collected from patent US20160215040A1.
